# system: Sodium- and chloride-dependent GABA transporter 3 (Homo sapiens) (UniProt P48066)
# Sequence (P48066 whole entry): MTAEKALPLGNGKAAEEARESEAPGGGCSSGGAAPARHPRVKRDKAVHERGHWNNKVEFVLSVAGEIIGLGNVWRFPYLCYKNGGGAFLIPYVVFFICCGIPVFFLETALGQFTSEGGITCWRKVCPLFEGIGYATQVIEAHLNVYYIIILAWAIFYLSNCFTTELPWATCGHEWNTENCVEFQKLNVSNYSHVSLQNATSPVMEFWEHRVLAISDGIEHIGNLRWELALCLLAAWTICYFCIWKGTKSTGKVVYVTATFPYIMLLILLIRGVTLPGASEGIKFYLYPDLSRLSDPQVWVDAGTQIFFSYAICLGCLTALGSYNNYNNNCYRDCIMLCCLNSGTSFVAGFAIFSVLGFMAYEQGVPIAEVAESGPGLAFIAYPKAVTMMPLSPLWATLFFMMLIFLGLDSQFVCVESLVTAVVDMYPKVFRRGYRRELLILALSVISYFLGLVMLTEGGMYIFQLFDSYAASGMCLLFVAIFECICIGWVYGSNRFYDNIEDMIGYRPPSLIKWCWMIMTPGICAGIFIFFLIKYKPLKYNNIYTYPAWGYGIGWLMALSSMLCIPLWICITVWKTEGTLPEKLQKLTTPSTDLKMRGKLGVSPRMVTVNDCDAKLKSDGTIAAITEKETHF
# experimental.details: Inhibition of human GAT3 expressed in CHO cells assessed as reduction in [3H]GABA uptake at 100 uM after 20 mins by liquid scintillation counting analysis relative to control
# Format: cell-based
measurement.kind: inhibition (%)
The reply should be a number in %, with the unit left off.

Use these answered entries as a reference point.
{"smiles.text": "C[C@@H](C(=O)O)[C@@H]1C[C@H]1N", "inhibition (%)": 9.3}
{"smiles.text": "[N-]=[N+]=N[C@@H](C(=O)O)[C@@H]1C[C@H]1N", "inhibition (%)": 11.8}
{"smiles.text": "N[C@@H]1C[C@H]1[C@@H](O)C(=O)O", "inhibition (%)": 8.3}
{"smiles.text": "CC[C@@H](C(=O)O)[C@@H]1C[C@H]1N", "inhibition (%)": -2.4}
{"smiles.text": "C[C@H](C(=O)O)[C@@H]1C[C@H]1N", "inhibition (%)": 25.6}

Which inhibition value belongs to `N[C@@H]1C[C@H]1[C@@H](F)C(=O)O` ?
5.2

Again, but for `C=C[C@@H](C(=O)O)[C@@H]1C[C@H]1N`
-3.6

====

Measured inhibition accompanies every entry in the list below.
# system: Sodium- and chloride-dependent betaine transporter (Homo sapiens) (UniProt P48065)
# Sequence (P48065 whole entry): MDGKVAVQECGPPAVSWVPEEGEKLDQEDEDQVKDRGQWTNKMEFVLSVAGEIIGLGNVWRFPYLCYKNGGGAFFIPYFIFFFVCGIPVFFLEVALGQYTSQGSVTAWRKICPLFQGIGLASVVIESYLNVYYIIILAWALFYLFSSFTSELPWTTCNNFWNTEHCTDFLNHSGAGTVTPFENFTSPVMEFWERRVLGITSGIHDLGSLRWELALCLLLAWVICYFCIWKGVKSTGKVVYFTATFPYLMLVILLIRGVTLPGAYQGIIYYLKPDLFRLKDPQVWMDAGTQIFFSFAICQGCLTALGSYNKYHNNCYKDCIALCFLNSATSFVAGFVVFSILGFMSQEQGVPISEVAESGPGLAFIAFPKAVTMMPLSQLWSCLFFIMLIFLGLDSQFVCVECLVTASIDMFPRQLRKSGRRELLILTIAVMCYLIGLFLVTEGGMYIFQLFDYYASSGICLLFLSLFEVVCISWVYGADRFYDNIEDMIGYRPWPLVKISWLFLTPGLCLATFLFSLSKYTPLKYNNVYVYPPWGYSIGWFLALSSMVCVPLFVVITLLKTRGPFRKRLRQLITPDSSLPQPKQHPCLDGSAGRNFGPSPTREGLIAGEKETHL
# experimental.details: Inhibition of human BGT1 expressed in CHO cells assessed as reduction in [3H]GABA uptake at 100 uM after 20 mins by liquid scintillation counting analysis relative to control
# Assay type: cell-based
Express the result in % but write the number alone.

Below, each entry is followed by its recorded inhibition result.
{"smiles.text": "C[C@H](C(=O)O)[C@@H]1C[C@H]1N", "inhibition, %": 57.3}
{"smiles.text": "CC[C@H](C(=O)O)[C@@H]1C[C@H]1N", "inhibition, %": -1.3}
{"smiles.text": "C[C@@H](C(=O)O)[C@@H]1C[C@H]1N", "inhibition, %": 62.7}
{"smiles.text": "[N-]=[N+]=N[C@@H](C(=O)O)[C@@H]1C[C@H]1N", "inhibition, %": 57.2}

So what's the measured inhibition for this one? `CC[C@@H](C(=O)O)[C@@H]1C[C@H]1N`
13.4

`N[C@@H]1C[C@H]1[C@@H](O)C(=O)O` , same question.
44.7

Again, but for `N[C@@H]1C[C@H]1[C@@H](F)C(=O)O`
22.2
